System Under Test: Carboxylic ester hydrolase (Sus scrofa) (UniProt A0A286ZKB1)
Sequence (whole entry): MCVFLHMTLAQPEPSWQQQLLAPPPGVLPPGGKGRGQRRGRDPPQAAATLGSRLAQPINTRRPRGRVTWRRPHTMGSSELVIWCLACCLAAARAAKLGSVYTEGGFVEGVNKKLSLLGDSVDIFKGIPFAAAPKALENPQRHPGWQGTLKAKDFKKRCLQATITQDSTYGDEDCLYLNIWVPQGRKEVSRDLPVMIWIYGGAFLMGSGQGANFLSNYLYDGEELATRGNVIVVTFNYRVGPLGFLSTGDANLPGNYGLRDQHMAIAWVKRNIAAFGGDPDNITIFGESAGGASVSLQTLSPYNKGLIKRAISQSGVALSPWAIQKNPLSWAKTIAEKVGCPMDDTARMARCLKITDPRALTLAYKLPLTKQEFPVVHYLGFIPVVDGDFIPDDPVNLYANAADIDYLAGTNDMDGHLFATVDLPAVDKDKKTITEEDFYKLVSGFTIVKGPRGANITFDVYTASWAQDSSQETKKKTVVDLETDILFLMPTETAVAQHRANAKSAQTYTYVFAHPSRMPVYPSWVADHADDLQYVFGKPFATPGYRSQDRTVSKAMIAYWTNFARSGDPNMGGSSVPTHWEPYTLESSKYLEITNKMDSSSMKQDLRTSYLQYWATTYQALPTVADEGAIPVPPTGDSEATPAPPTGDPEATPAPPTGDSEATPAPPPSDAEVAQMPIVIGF
Procedure Text: Inhibition of porcine cholesterol esterase at 1 nM using para-nitrophenyl butyrate as substrate after 5 mins in presence of sodium taurocholate by spectrophotometric method relative to control
Metric: inhibition (%)
Answer in %, number only, no unit symbol.

As a guide, the following entries are already answered.
CC(=O)Oc1cccc(-c2cc(=O)c3ccc4ccccc4c3o2)c1
23
O=c1cc(-c2ccccc2)oc2c1ccc1ccccc12 [ALPHA-NAPHTHOFLAVONE]
28
O=c1cc(-c2cc(F)cc(C(F)(F)F)c2)oc2c1ccc1ccccc12
27
O=c1cc(-c2cccc(OC(F)(F)F)c2)oc2c1ccc1ccccc12
17

Query: So what's the measured inhibition for this one? `COc1ccc(-c2cc(=O)c3ccc4ccccc4c3o2)c(OC)c1`
Result: 6

Query: So what's the measured inhibition for this one? `O=c1cc(-c2cccc(C(F)(F)F)c2)oc2c1ccc1ccccc12`
Result: 26

Query: So what's the measured inhibition for this one? `O=c1cc(-c2ccccc2I)oc2c1ccc1ccccc12`
Result: 46
